Tested on: SK-MEL-28 melanoma
assay: NCI-60 one-dose screen, 48 h
run conditions: 10 µM unless noted
Compounds without any hit were thinned out: in the full panel of roughly 83,000, 20% have a hit. Active and inactive are the calls of the source. The calls were made as follows: active = growth percent below 10; inactive = the rest.
Possible outcomes: Y (active), N (inactive)

INSERT INTO results (test_smiles, group_label) VALUES
  ('CC1(C)N=C(N)N=C(N)N1c1ccc(OCCCCOc2ccc(S(=O)(=O)F)cc2)c(Cl)c1', 'N'),
  ('[Br][Pb]([c]1ccccc1)([c]1ccccc1)[c]1ccccc1', 'Y'),
  ('O=C(Nc1ccc(S(=O)(=O)F)cc1)Oc1ccccc1', 'N'),
  ('Oc1ccccc1OB(Oc1ccccc1O)N(CCCl)CCCl', 'N'),
  ('COc1ccc(-c2ccc(OC)c(OC)c2OC)cc1', 'N'),
  ('CC(=O)Oc1ccc(Cl)cc1', 'N'),
  ('O=C(CCl)NCNC(=O)CCl', 'N');

###

System: HL-60(TB) leukemia
assay: NCI-60 one-dose screen, 48 h (100 = growth as untreated, 0 = no growth, -100 = all killed)
run conditions: 10 µM unless noted
Compounds without any hit were thinned out: in the full panel of roughly 83,000, 20% have a hit. The source made the active and inactive calls. Rule for the calls: active = growth percent below 10; inactive = the rest.
reported metric: growth

INSERT INTO assay_data (compound, reported_metric, reported_measurement) VALUES
  ('Cc1ccc(S(=O)(=O)n2cc(C(=O)C(=O)Nc3ccncc3)c3ccccc32)cc1', 'growth', '16.1% (inactive)'),
  ('COc1ccc2sc(-n3nc4nc5n(c(=O)c4c3N)-c3ccccc3Sc3ccccc3-5)nc2c1', 'growth', '66.6% (inactive)'),
  ('C/C(Cc1ccc(Cl)cc1)=C(\c1ccc(OCCN2CCCCCC2)cc1)c1ccc(OC(=O)Cc2ccccc2)cc1', 'growth', '15.8% (inactive)'),
  ('NC(=O)c1ccc2c(c1)OCO2', 'growth', '103% (inactive)'),
  ('COC(=O)[C@H](CCCCNC(=O)OCc1ccccc1)NC(=O)[C@@H](NC(=O)Nc1cc(C(F)(F)F)cc(C(F)(F)F)c1)C(C)C', 'growth', '-9.21% [100 µM] (active)'),
  ('O=C(COc1ccc(/C=C2\Cc3ccc(Cl)cc3C2=O)cc1)Nc1nccs1', 'growth', '67.3% (inactive)'),
  ('O=C1/C(=C/c2ccccc2O)CC/C1=C\c1ccccc1O', 'growth', '11.9% (inactive)'),
  ('Cn1cc(-c2nc(-c3c[nH]c4ccncc34)cs2)c2cc(Br)ccc21', 'growth', '-61.4% (active)'),
  ('Cc1cccc(NC(=O)CCc2ccc(N3C(N)=NC(N)=NC3(C)C)cc2)c1', 'growth', '20.1% (inactive)'),
  ('COc1ccc(C(=S)N2CCN(c3cccc(Cl)c3)CC2)cc1', 'growth', '130% (inactive)'),
  ('CC(O)COc1ccc(-c2ccccc2)cc1 (stereo not given)', 'growth', '102% (inactive)'),
  ('CC(C)[C@H]1CC[C@H]2[C@@H](CC[C@H]3[C@](C)(CN)CCC[C@]23C)C1', 'growth', '71.8% (inactive)'),
  ('COc1ccc(OC)c(Nc2nc3nonc3nc2Nc2cccc(Br)c2)c1', 'growth', '-14.1% (active)'),
  ('CN1CCN(C(=O)[C@@]2(C)CC[C@]3(C)CC[C@]4(C)C(=CC[C@@H]5[C@@]6(C)CCC(=O)NC(C)(C)[C@@H]6CC[C@]54C)[C@@H]3C2)CC1', 'growth', '-35.8% (active)'),
  ('N/C(=N\c1nc2ccccc2s1)NC(=O)Nc1cccc(Cl)c1', 'growth', '3.43% (active)'),
  ('O=S(=O)(NCCNc1cc(-c2c(-c3cccc(O)c3)nc3sccn23)ccn1)c1ccc(Cl)cc1', 'growth', '84.3% (inactive)'),
  ('CSc1nc(C)c([N+](=O)[O-])c(N)n1', 'growth', '90.2% (inactive)'),
  ('NC1=CSC2=N/C(=C\c3ccc(Cl)cc3)C(=O)N12', 'growth', '39.9% (inactive)'),
  ('Cc1ccc(S(=O)(=O)c2nc(-c3ccccc3)oc2S(C)=O)cc1 (stereo not given)', 'growth', '-47.4% (active)'),
  ('COc1ccc2oc(=O)cc(CN3C(=O)S/C(=C\c4ccc(Cl)cc4)C3=O)c2c1', 'growth', '89.5% (inactive)'),
  ('COc1ccc2nc3cc(Cl)ccc3c(NCCCNCCC(C)O)c2c1 (stereo not given)', 'growth', '-38.1% (active)'),
  ('COc1ccc(-c2cc(-c3ccc(Cl)cc3)nc(SCCCC(=O)NO)n2)cc1', 'growth', '-22.9% (active)'),
  ('Oc1c(CNCCNCc2cc(Cl)cc(Cc3ccccc3)c2O)cc(Cl)cc1Cc1ccccc1', 'growth', '-0.262% (active)'),
  ('Cc1cc(CCl)c(C)cc1CCl', 'growth', '15.3% (inactive)'),
  ('CN(Cc1ccccc1)c1nc(Cl)c(C2CC(c3ccc(Cl)cc3)=NN2c2cc(Cl)cc(Cl)c2)s1 (stereo not given)', 'growth', '102% (inactive)'),
  ('COc1ccc(/C=C(\C#N)c2cc3ccccc3[nH]2)cc1', 'growth', '14.8% (inactive)'),
  ('CCCCCCCC/C=C/CCCCCCCC1=NC(C)(C)CN1C(C)C', 'growth', '-65.6% (active)'),
  ('CN1CCN(c2ccc(-c3cc4c(Nc5ccc(F)c(Cl)c5)ncnn4c3)cn2)CC1', 'growth', '72.8% (inactive)'),
  ('CC(C)(C)n1cc(-c2ccnc(NCCCNS(=O)(=O)c3ccc(Cl)cc3)c2)c(-c2cccc(O)c2)n1', 'growth', '-46.1% (active)'),
  ('Cc1sc2ncn(CC(=O)Nc3ccc(S(N)(=O)=O)cc3)c(=O)c2c1C', 'growth', '103% (inactive)');
